test: in vivo; conditions: male, Sprague-Dawley (SD), rat
ENDPOINT: bioavailability (%)
Kindly provide the numeric value in % only, without the unit symbol.

Find the measured bioavailability of `C[C@@H]1CCC[C@H](n2cnc(-c3cc(Cl)ccc3-n3cc(C(F)(F)F)nn3)cc2=O)c2cc(cc(F)c2F)-c2c(cnn2C(F)F)NC1=O` and report it.
29.4

----------
test system: Pooled human plasma; assay: In vitro anticoagulant effect in human plasma (aPTT, EC1.5x); assay type: biochemical; details: 37 °C for 10 minutes
Give Human Plasma APTT 1.5x for every item shown.
Kindly provide the numeric value in µM only, without the unit symbol.

Find the measured Human Plasma APTT 1.5x of [2H]C([2H])([2H])n1ncc2c1-c1cc(F)c(F)c(c1)[C@@H](n1cnc(-c3cc(Cl)ccc3-n3cc(C(F)(F)F)nn3)cc1=O)CCC[C@@H](C)C(=O)N2 [Compound 2] and report it.
0.24

Find the measured Human Plasma APTT 1.5x of C[C@@H]1CCC[C@H](n2cnc(-c3c(-n4cc(C(F)(F)F)nn4)ccc(Cl)c3F)cc2=O)c2cc(cc(F)c2F)-c2c(cnn2C(F)F)NC1=O [Compound 11] and report it.
0.23

Find the measured Human Plasma APTT 1.5x of [2H]C([2H])([2H])n1ncc2c1-c1cc(cc(F)c1F)[C@@H](n1cnc(-c3cc(Cl)ccc3-n3cc(Cl)nn3)cc1=O)CCC[C@@H](C)C(=O)N2 [Compound 17] and report it.
0.04
